measurement-protocol: molar heat capacity at constant pressure
assay-conditions: 295.15 K; 101.33 kPa; Liquid; Large sample (1 g) DSC
property-name: molar heat capacity at constant pressure (J/K/mol)

compound: COCCOCCOCCO [2-[2-(2-methoxyethoxy)ethoxy]ethanol]
quantity-unit: J/K/mol
molar heat capacity at constant pressure: 355.9

A: CCCOCCOCCO [2-(2-propoxyethoxy)ethanol]
B: CCCCCCCCOCCOCCOCCO [2-[2-[2-(octyloxy)ethoxy]ethoxy]ethanol]
C: CCOCCO [2-ethoxyethan-1-ol]
Give the ascending ranking of the items by reported molar heat capacity at constant pressure. // format: requested-order list of labels
C, A, B
(C: 210 J/K/mol, A: 328.2 J/K/mol, B: 572.2 J/K/mol)

1: CCCCCCOCCOCCO [2-(2-hexyloxyethoxy)ethanol]
2: CCCOCCO [2-propoxyethanol]
Parameter check: reported molar heat capacity at constant pressure is higher for which label, 1 or 2 ? Write the label of whichever entry you select.
1
(1: 419.6 J/K/mol, 2: 240.1 J/K/mol)

P: CCOCCOCCO [3,6-dioxa-1-octanol]
Q: COCCOCCOCCOCCO [3,6,9,12-tetraoxatridecanol]
Parameter check: reported molar heat capacity at constant pressure is higher for which label, P or Q ? Write the label of whichever entry you select.
Q

---

measurement-protocol: molar heat capacity at constant pressure
assay-conditions: 299.15 K; 101.33 kPa; Liquid; Large sample (1 g) DSC
property-name: molar heat capacity at constant pressure (J/K/mol)

Here is how some compounds turned out for molar heat capacity at constant pressure.
compound: CCCOCCO
quantity-unit: J/K/mol
molar heat capacity at constant pressure: 241.8

compound: CCCCCCOCCOCCO
quantity-unit: J/K/mol
molar heat capacity at constant pressure: 421.4

compound: CCOCCO
quantity-unit: J/K/mol
molar heat capacity at constant pressure: 211.4

compound: CCCCOCCOCCO
quantity-unit: J/K/mol
molar heat capacity at constant pressure: 360.6

compound: COCCOCCOCCOCCO
quantity-unit: J/K/mol
molar heat capacity at constant pressure: 448.8

compound: CCOCCOCCO
quantity-unit: J/K/mol
molar heat capacity at constant pressure: 301.9

compound: CCCOCCOCCO
quantity-unit: J/K/mol
molar heat capacity at constant pressure: 329.7

compound: CCCCOCCO
quantity-unit: J/K/mol
molar heat capacity at constant pressure: 273.5

compound: COCCOCCO
quantity-unit: J/K/mol
molar heat capacity at constant pressure: 267.6

P: COCCOCCOCCO [2-[2-(2-methoxyethoxy)ethoxy]ethanol]
Q: CCCCCCCCOCCOCCOCCO [2-[2-[2-(octyloxy)ethoxy]ethoxy]ethanol]
Among P and Q , whose measured molar heat capacity at constant pressure is the smaller figure? Write the label of whichever entry you select.
P

---

measurement-protocol: molar heat capacity at constant pressure
assay-conditions: 307.15 K; 101.33 kPa; Liquid; Large sample (1 g) DSC
property-name: molar heat capacity at constant pressure (J/K/mol)

Here is how some compounds turned out for molar heat capacity at constant pressure.
compound: COCCOCCOCCOCCO
property-name: molar heat capacity at constant pressure
assay-value: 450.5
--
compound: CCOCCOCCO
property-name: molar heat capacity at constant pressure
assay-value: 304.3
--
compound: CCCCCCOCCOCCO
property-name: molar heat capacity at constant pressure
assay-value: 425.1
--
compound: CCOCCO
property-name: molar heat capacity at constant pressure
assay-value: 214.3
--
compound: COCCOCCOCCO [2-[2-(2-methoxyethoxy)ethoxy]ethanol]
property-name: molar heat capacity at constant pressure
assay-value: 358.6

1: CCCCOCCOCCO
2: CCCCCCCCOCCOCCOCCO [2-[2-[2-(octyloxy)ethoxy]ethoxy]ethanol]
Parameter check: reported molar heat capacity at constant pressure is higher for which label, 1 or 2 ? Write the label of whichever entry you select.
2

---

measurement-protocol: molar heat capacity at constant pressure
assay-conditions: 311.15 K; 101.33 kPa; Liquid; Large sample (1 g) DSC
property-name: molar heat capacity at constant pressure (J/K/mol)

P: COCCOCCOCCO [2-[2-(2-methoxyethoxy)ethoxy]ethanol]
Q: CCCCCCCCOCCOCCOCCO [2-[2-[2-(octyloxy)ethoxy]ethoxy]ethanol]
Among P and Q , whose measured molar heat capacity at constant pressure is the smaller figure? Write the label of whichever entry you select.
P
(P: 359.6 J/K/mol, Q: 580.6 J/K/mol)

P: CCCCCCOCCOCCO
Q: CCCOCCO
Parameter check: reported molar heat capacity at constant pressure is higher for which label, P or Q ? Write the label of whichever entry you select.
P

1: CCOCCOCCO
2: COCCOCCOCCOCCO
Parameter check: reported molar heat capacity at constant pressure is higher for which label, 1 or 2 ? Write the label of whichever entry you select.
2

---

measurement-protocol: molar heat capacity at constant pressure
assay-conditions: 289.15 K; 101.33 kPa; Liquid; Large sample (1 g) DSC
property-name: molar heat capacity at constant pressure (J/K/mol)

Here is how some compounds turned out for molar heat capacity at constant pressure.
compound: COCCOCCOCCO [2-[2-(2-methoxyethoxy)ethoxy]ethanol]
property-name: molar heat capacity at constant pressure
assay-value: 354.7

compound: COCCOCCO [2-(2-methoxyethoxy)ethanol]
property-name: molar heat capacity at constant pressure
assay-value: 265.1

compound: CCCCCCOCCOCCO [2-(2-hexyloxyethoxy)ethanol]
property-name: molar heat capacity at constant pressure
assay-value: 417

compound: CCOCCOCCO [3,6-dioxa-1-octanol]
property-name: molar heat capacity at constant pressure
assay-value: 299.4

compound: CCCOCCO [2-propoxyethanol]
property-name: molar heat capacity at constant pressure
assay-value: 237.5

P: COCCOCCOCCOCCO [3,6,9,12-tetraoxatridecanol]
Q: CCOCCO [2-ethoxyethan-1-ol]
Among P and Q , whose measured molar heat capacity at constant pressure is the smaller figure? Write the label of whichever entry you select.
Q
(Q: 208 J/K/mol, P: 447.1 J/K/mol)

I: CCCOCCOCCO [2-(2-propoxyethoxy)ethanol]
II: CCCCCCCCOCCOCCOCCO [2-[2-[2-(octyloxy)ethoxy]ethoxy]ethanol]
Parameter check: reported molar heat capacity at constant pressure is higher for which label, I or II ? Write the label of whichever entry you select.
II
(II: 569.5 J/K/mol, I: 326.1 J/K/mol)

---

measurement-protocol: molar heat capacity at constant pressure
assay-conditions: 303.15 K; 101.33 kPa; Liquid; Large sample (1 g) DSC
property-name: molar heat capacity at constant pressure (J/K/mol)

Here is how some compounds turned out for molar heat capacity at constant pressure.
smiles-representation: CCCCOCCOCCO
property-name: molar heat capacity at constant pressure
assay-value: 362.4
//
smiles-representation: COCCOCCO
property-name: molar heat capacity at constant pressure
assay-value: 268.7
//
smiles-representation: CCCCOCCO
property-name: molar heat capacity at constant pressure
assay-value: 275.5

a: CCCOCCOCCO
b: CCOCCO
Among a and b , whose measured molar heat capacity at constant pressure is the smaller figure? Write the label of whichever entry you select.
b
(b: 212.8 J/K/mol, a: 331.3 J/K/mol)

---

measurement-protocol: molar heat capacity at constant pressure
assay-conditions: 279.15 K; 101.33 kPa; Liquid; Large sample (1 g) DSC
property-name: molar heat capacity at constant pressure (J/K/mol)

smiles-representation: CCCCCCOCCOCCO
property-name: molar heat capacity at constant pressure
assay-value: 412.8
--
smiles-representation: CCCCOCCOCCO
property-name: molar heat capacity at constant pressure
assay-value: 352.7
--
smiles-representation: CCCOCCO
property-name: molar heat capacity at constant pressure
assay-value: 233.3
--
smiles-representation: CCCOCCOCCO
property-name: molar heat capacity at constant pressure
assay-value: 322.6
--
smiles-representation: CCCCOCCO
property-name: molar heat capacity at constant pressure
assay-value: 263.6
--
smiles-representation: COCCOCCO
property-name: molar heat capacity at constant pressure
assay-value: 262.7

---

measurement-protocol: molar heat capacity at constant pressure
assay-conditions: 298.15 K; 101.33 kPa; Liquid; Large sample (1 g) DSC
property-name: molar heat capacity at constant pressure (J/K/mol)

smiles-representation: CCCCOCCOCCO
quantity-unit: J/K/mol
molar heat capacity at constant pressure: 360.2
//
smiles-representation: COCCOCCO
quantity-unit: J/K/mol
molar heat capacity at constant pressure: 267.4
//
smiles-representation: CCCCCCOCCOCCO
quantity-unit: J/K/mol
molar heat capacity at constant pressure: 421
//
smiles-representation: CCCCOCCO
quantity-unit: J/K/mol
molar heat capacity at constant pressure: 273

---

measurement-protocol: molar heat capacity at constant pressure
assay-conditions: 315.15 K; 101.33 kPa; Liquid; Large sample (1 g) DSC
property-name: molar heat capacity at constant pressure (J/K/mol)

compound: CCCCOCCOCCO
quantity-unit: J/K/mol
molar heat capacity at constant pressure: 367.9
//
compound: COCCOCCOCCO [2-[2-(2-methoxyethoxy)ethoxy]ethanol]
quantity-unit: J/K/mol
molar heat capacity at constant pressure: 360.6
//
compound: CCCOCCOCCO
quantity-unit: J/K/mol
molar heat capacity at constant pressure: 336
//
compound: COCCOCCO
quantity-unit: J/K/mol
molar heat capacity at constant pressure: 272.2

This collection of values is drawn from the NIST ThermoML archive (doi:10.1021/acs.jced.5b00051).
